Reference source: ChEMBL document CHEMBL1147021

Target: Inosine-5'-monophosphate dehydrogenase 2 (Homo sapiens, UniProt P12268)
Assay: Inhibition of IMPDH2
Quantity name: pIC50
Field pIC50 (float): negative decimal logarithm of the concentration in molar.

Here's what some known entries look like.
In [3]: df
Out[3]:
                             smiles_record                         system_under_test  quantity_name  numeric_readout
0     CONC(=O)Nc1ccc2c(-c3ccncc3)c[nH]c2c1  Inosine-5'-monophosphate dehydrogenase 2 (Homo sapiens, UniProt P12268)          pIC50             5.95
1  Cn1cc(C#N)c2ccc(NS(=O)(=O)c3ccccc3)cc21  Inosine-5'-monophosphate dehydrogenase 2 (Homo sapiens, UniProt P12268)          pIC50             5.11

Return reported pIC50. Input compound: `CN(C(=O)Nc1ccc2c(C#N)c[nH]c2c1)c1ccccc1`
4.81

Return reported pIC50. Input compound: `Cn1cc(C#N)c2ccc(NC(=O)NOCc3ccccc3)cc21`
5.93
